Test system: Wolbachia pipientis
Test: Anti-Wolbachia Cell-Based Screen
Format: functional
Parameters: scale not given: in the data most compounds retested in dose-response had high values
Conditions: 5 µM
Among all 48,000 compounds or so, about 13,000 (27%) showed an effect of 50% or more. Some of the results follow.
readout.kind: Percent Effect (%)
Response body: numeric value in %, unit text excluded.

# record.smiles, target.or.system, unit.spec, result.number
rows = [
    ("CCCS(=O)(=O)N1CCC2(CC1)CCn1c(-c3cnn(C)c3)cnc12.O=C(O)C(F)(F)F", "Wolbachia pipientis", "%", -1.785),
]

Please supply the value of reported Percent Effect for the item "O=C(Nc1cnccn1)[C@H]1COC[C@H]2CN(c3ncc(F)cn3)C[C@H]21"
-11.52

Please supply the value of reported Percent Effect for the item "CCCC(=O)N(CCCN1CCOCC1)c1nc2c(C)ccc(Cl)c2s1.Cl"
32.82

Please supply the value of reported Percent Effect for the item "CCNC(=O)[C@@H]1CCCN1[C@@H](C(=O)NC)c1ccccc1OC.Cl"
2.638

Please supply the value of reported Percent Effect for the item "CCNC(=O)CNC(=O)c1ccn(S(=O)(=O)c2ccc(C)cc2)c1"
0.9489

The measured values listed here are drawn from ChEMBL document CHEMBL3988442.
